Taken from paper PMC6305410.

system.tested: NleB1 (Escherichia coli, UniProt Q8XBX8)
Construct: GST-EHEC-NleB1 in pET42a (GST/His tagged), expressed in E. coli BL21 (DE3), nickel purified; some tag cleavage noted
condition.context: 10 µM; inhibitor
Criterion: % NleB1 inhibition (µM compound) / 10 meeting or surpassing 20%. Met: yes. Not met: no.

As a guide, the following entries are already answered.
# molecule, system.tested, discrete.label
data = [
    ("CCC[C@H]1[C@@H](OC(=O)NCc2ccc(OC)cc2)CC[C@@]23CCCN2C(=O)CCC[C@@H]13 [KUC112136N]", "NleB1 (Escherichia coli, UniProt Q8XBX8)", "no"),
    ("Cc1cccc(C)c1OCc1cn(CC(=O)c2ccc(O)cc2)nn1 [KUC104090N]", "NleB1 (Escherichia coli, UniProt Q8XBX8)", "yes"),
    ("CCCCCCCCCCCCN1[C@@H](CC(=O)O)c2cc(C(F)(F)F)ccc2S1(=O)=O [KUC101994N]", "NleB1 (Escherichia coli, UniProt Q8XBX8)", "yes"),
    ("CCCCCCC(=O)N1C/C=C\\C(c2ccc(OC)cc2)N(Cc2ccc(F)cc2)C(=O)[C@@H]1Cc1ccccc1 (stereo partly shown) [KUC101608N]", "NleB1 (Escherichia coli, UniProt Q8XBX8)", "no"),
    ("CCCCN1CC(COCc2ccccc2)Oc2cccc(Oc3ccc(F)cc3OC)c2S1(=O)=O (stereo not shown) [KUC106008N]", "NleB1 (Escherichia coli, UniProt Q8XBX8)", "yes"),
    ("O=C(NC1CCC(=O)N(CCSc2ccccc2)CC1)OCc1ccccc1 (stereo not shown) [KUC102830N]", "NleB1 (Escherichia coli, UniProt Q8XBX8)", "no"),
]

Challenge: Given C[C@H](c1ccccc1)N1C[C@@H](COCc2ccccc2)Oc2cc(N3CC[C@@H](O)C3)ccc2S1(=O)=O [KUC108511N] , state whether its % NleB1 inhibition (µM compound) / 10 is at least 20%.
Response given: yes

Challenge: Repeat for the following molecule: O=Cc1cccc(OCc2cn(CC(=O)c3ccc(O)cc3)nn2)c1 [KUC104114N]
Response given: yes

Challenge: Repeat for the following molecule: COc1ccc(C2CC(O)(c3ccccc3)Oc3c(C)ccc(C)c32)cc1 (stereo not shown) [KUC101437N]
Response given: no

Challenge: Repeat for the following molecule: O=C(O)c1cc(-c2ccc(-c3c(-c4ccco4)noc3-c3ccccc3)cc2)nc2ccccc12 [KUC102644N]
Response given: yes
